Test system: CYP1A
assay.overview: CYP1A activity
Format: cell-based, mouse
test.context: mouse

compound | assay.system | EC50 at 24 h (nM)
Clc1cc2c(cc1Cl)Oc1cc(Cl)c(Cl)cc1O2 [TCDD, 2,3,7,8-tetrachlorodibenzo-p-dioxin] | CYP1A | 0.01

----------
Tested on: CYP1A7 (Xl.1220) mRNA
assay.overview: qRT-PCR of selected altered transcripts in XLK-WG cells
Format: cell-based, Xenopus laevis
test.context: Xenopus laevis
assay.metric: fold induction at 3 h, 100 nM

compound | measured
Clc1cc2c(cc1Cl)Oc1cc(Cl)c(Cl)cc1O2 [TCDD, 2,3,7,8-tetrachlorodibenzo-p-dioxin] | 320

----------
Test system: CYP1A
assay.overview: CYP1A activity
Assay type: cell-based, Xenopus laevis
test.context: Xenopus laevis
assay.metric: EC50 at 24 h

chemical.string | assay.system | assay.metric | measured
Clc1cc2c(cc1Cl)Oc1cc(Cl)c(Cl)cc1O2 | CYP1A | EC50 at 24 h | ≥ 95 nM

----------
System: CYP1A6 (Xl.1692) mRNA
assay.overview: qRT-PCR of selected altered transcripts in XLK-WG cells
Type: cell-based, Xenopus laevis
test.context: Xenopus laevis

chemical.string | assay.system | fold induction at 3 h, 100 nM
Clc1cc2c(cc1Cl)Oc1cc(Cl)c(Cl)cc1O2 | CYP1A6 (Xl.1692) mRNA | 427

----------
Tested on: CYP1A6 (Xl.1692) mRNA
assay.overview: qRT-PCR of selected altered transcripts in XLK-WG cells
Type: cell-based, Xenopus laevis
test.context: Xenopus laevis

compound | fold induction
O=Cc1c2[nH]c3ccccc3c2cc2[nH]c3ccccc3c12 [FICZ, 6-formylindolo[3,2-b]carbazole] | 455

----------
System: CYP1A7 (Xl.1220) mRNA
assay.overview: qRT-PCR of selected altered transcripts in XLK-WG cells
Type: cell-based, Xenopus laevis
test.context: Xenopus laevis

compound | fold induction
O=Cc1c2[nH]c3ccccc3c2cc2[nH]c3ccccc3c12 [FICZ, 6-formylindolo[3,2-b]carbazole] | 412

----------
Tested on: CYP1A7 (Xl.1220) mRNA
assay.overview: Affymetrix expression microarray of XLK-WG cells
Assay type: cell-based, Xenopus laevis
test.context: Xenopus laevis

molecule | assay.system | fold induction at 0.1 µM
O=Cc1c2[nH]c3ccccc3c2cc2[nH]c3ccccc3c12 [FICZ, 6-formylindolo[3,2-b]carbazole] | CYP1A7 (Xl.1220) mRNA | 16.1

----------
Tested on: CYP1A7 (Xl.1220) mRNA
assay.overview: Affymetrix expression microarray of XLK-WG cells
Format: cell-based, Xenopus laevis
test.context: Xenopus laevis

chemical.string | fold induction at 3 h, 0.1 µM
Clc1cc2c(cc1Cl)Oc1cc(Cl)c(Cl)cc1O2 | 6.7

----------
System: CYP1A
assay.overview: CYP1A activity
Assay type: cell-based, mouse
test.context: mouse

chemical.string | EC50 at 3 h
Clc1cc2c(cc1Cl)Oc1cc(Cl)c(Cl)cc1O2 | 0.03 nM

----------
Tested on: CYP1A
assay.overview: CYP1A activity
Format: cell-based, Xenopus laevis
test.context: Xenopus laevis
assay.metric: EC50 at 3 h (nM)

chemical.string | assay.system | measured
Clc1cc2c(cc1Cl)Oc1cc(Cl)c(Cl)cc1O2 | CYP1A | 10.5
